- experimental-target: T1, human PILRB, ectopically expressed on 293 cells (human, UniProt Q9UKJ0 20-227)
- T1 construct: also called hB
- T1 sequence (Q9UKJ0 20-227): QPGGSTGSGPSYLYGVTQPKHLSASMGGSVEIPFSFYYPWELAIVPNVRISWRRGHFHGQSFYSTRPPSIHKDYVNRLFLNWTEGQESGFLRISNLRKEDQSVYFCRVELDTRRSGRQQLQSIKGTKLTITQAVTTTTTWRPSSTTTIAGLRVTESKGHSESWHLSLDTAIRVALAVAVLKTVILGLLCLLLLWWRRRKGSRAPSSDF
- experimental-protocol: flow cytometry, 293 cells expressing target
Here, each record is paired with measured EC50 data.
Numeric only. Scale: µg/mL

## Input Using the record for E15 (antibody, V domains shown, B-cell cloning campaign (mice)) VH: QVQLQQSGAELVKPGASVKLSCKASGNTFTIYDINWVRQRPEQGLEWIGWIFPGDGSTKYNGKFKGKATLTTDKSSSTAYMQLSRLTSEDSAVYFCARRAHYYGSSFDYWGQGTTLTVSS VL: DIQMTQSSSYLSVSLGGRVTITCKASDHINNWLAWYQQKPGNGPRLLISGAISLEIGVPSRFSGSGSGKEYTLSITSLQTEDVATYYCQQYWSPPWTFGGGTKLEIK , report its EC50.
## Output 16.4

## Input Reported EC50 for E5 (antibody, V domains shown) VH: QVQLVQSGAEVKKPGSSVKVSCKASGYTFTSYGINWVRQAPGQGLEWMGWINPNSGDTLYAQNFQGRVTITADESTSTAYMELSSLRSEDTAVYYCARGPEPYWYFDLWGRGTLVTVSS VL: EIVMTQSPATLSVSPGERATLSCRASQNIDSRFLAWYQQKPGQAPRLLIYGASTRATGIPARFSGSGSGTEFTLTISSLQSEDFAVYYCQQSFSTPLTFGGGTKVEIK : what is it?
## Output 0.3

## Input What does the data say about its EC50? Entry: A13 (antibody, V domains shown, phage campaign; same VH/VL as E19) VH: QVQLVQSGAEVKKPGSSVKVSCKASGYLFSDYAMNWVRQAPGQGLEWVGWIIPNSGGTKFAQTFQGRVTITADESTSTAYMELSSLRSEDTAVYYCAREHGVVPADHYYYGMDVWGQGTTVTVSS VL: EIVMTQSPATLSVSPGERATLSCRASQSISSSYLAWYQQKPGQAPRLLIYGASTRATGIPARFSGSGSGTEFTLTISSLQSEDFAVYYCQQYGRFPWTFGQGTKVEIK
## Output 6.2
